Entries and their measured CC50 follow.
Test system: VCaP cells
Assay: Cytotoxicity assessment (Cell-titer-glo cell viability), VCaP
Conditions: read-out: VCaP (CC50); VCaP cells, 6 days of treatment, Cell-titer-glo, vs DMSO
measurement name: CC50

compound="CC1(C)C(NC(=O)c2ccc(-n3cc(C4CCN(C(=O)CNc5ccc6nnn(C7CCC(=O)NC7=O)c(=O)c6c5)CC4)nn3)cc2)C(C)(C)C1Oc1ccc(C#N)c(Cl)c1 (stereo not shown) [Example 107]" experimental_system="VCaP cells" reported="3.59 nM"
compound="CC1(C)C(NC(=O)c2ccc(-n3cc(CC4CCN(C(=O)C5CCN(c6ccc7nnn(C8CCC(=O)NC8=O)c(=O)c7c6)CC5)CC4)nn3)cc2)C(C)(C)C1Oc1ccc(C#N)c(Cl)c1 (stereo not shown) [Example 104]" experimental_system="VCaP cells" reported="16.9 nM"
compound="CC1(C)C(NC(=O)c2ccc(-c3cnn(C4CCN(CC5CCN(C(=O)C6CN(c7ccc8nnn(C9CCC(=O)NC9=O)c(=O)c8c7)C6)CC5)CC4)c3)nc2)C(C)(C)C1Oc1ccc(C#N)c(Cl)c1 (stereo not shown) [Example 114]" experimental_system="VCaP cells" reported="14 nM"
compound="CC1(C)C(NC(=O)c2ccc(N3CC4CN(CC5CCN(C(=O)COc6ccc7nnn(C8CCC(=O)NC8=O)c(=O)c7c6)CC5)CC4C3)cc2)C(C)(C)C1Oc1ccc(C#N)c(Cl)c1 (stereo not shown) [Example 137]" experimental_system="VCaP cells" reported="94 nM"
compound="CC1(C)[C@H](NC(=O)c2ccc(N3CCN(CCC4CCN(C(=O)C5CCN(c6ccc7nnn(C8CCC(=O)NC8=O)c(=O)c7c6)CC5)CC4)CC3)cc2)C(C)(C)[C@H]1Oc1ccc(C#N)c(Cl)c1 (stereo partly shown) [Example 26]" experimental_system="VCaP cells" reported="51.6 nM"
compound="CC1(C)[C@H](NC(=O)c2ccc(N3CCN(CCCc4cn(-c5ccc6nnn(C7CCC(=O)NC7=O)c(=O)c6c5)nn4)CC3)cc2)C(C)(C)[C@H]1Oc1ccc(C#N)c(Cl)c1 (stereo partly shown) [Example 134]" experimental_system="VCaP cells" reported="64.5 nM"
compound="CC1(C)C(NC(=O)c2ccc(C#CCC3CCN(CC4CCN(C(=O)CNc5ccc6nnn(C7CCC(=O)NC7=O)c(=O)c6c5)CC4)CC3)nc2)C(C)(C)C1Oc1ccc(C#N)c(Cl)c1 (stereo not shown) [Example 128]" experimental_system="VCaP cells" reported="11 nM"
compound="CC1(C)C(NC(=O)c2ccc(N3CCN(CC4CCN(C(=O)C5CCN(c6ccc7nnn(C8CCC(=O)NC8=O)c(=O)c7c6)CC5)CC4)CC3)nc2)C(C)(C)C1Oc1ccc(C#N)c(Cl)c1 (stereo not shown) [Example 81]" experimental_system="VCaP cells" reported="23.8 nM"
compound="CC1(C)C(NC(=O)c2ccc(-n3cc(CN4CCN(c5ccc6nnn(C7CCC(=O)NC7=O)c(=O)c6c5)CC4)nn3)cc2)C(C)(C)C1Oc1ccc(C#N)c(Cl)c1 (stereo not shown) [Example 120]" experimental_system="VCaP cells" reported="29.7 nM"
compound="CC1(C)C(NC(=O)c2ccc(C#CCC3CCN(CC4CCN(C(=O)C5CCN(c6ccc7nnn(C8CCC(=O)NC8=O)c(=O)c7c6)CC5)CC4)CC3)cc2)C(C)(C)C1Oc1ccc(C#N)c(Cl)c1 (stereo not shown) [Example 116]" experimental_system="VCaP cells" reported="16.1 nM"
